Cited source: patent US6500835B2

Sequence of the target: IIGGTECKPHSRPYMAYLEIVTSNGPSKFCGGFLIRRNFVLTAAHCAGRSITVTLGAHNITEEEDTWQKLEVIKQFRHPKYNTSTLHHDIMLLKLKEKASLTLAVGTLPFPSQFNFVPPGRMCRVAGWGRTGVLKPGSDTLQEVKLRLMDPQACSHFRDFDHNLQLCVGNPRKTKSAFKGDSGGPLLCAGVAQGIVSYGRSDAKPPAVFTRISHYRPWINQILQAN
Where a name gives a salt, the structure may show the parent alone.
quantityMeasured: pIC50
Please keep in mind that pIC50 is minus log10 of the molar concentration; only the number is needed.

> print(dat)
                                   compound  measuredvalue
1  Nc1cc(S(=O)(=O)n2c(=O)[nH]c3cc(Cl)ccc3c2=O)ccc1C(=O)[O-].[Na+] [Compound 18, monosodium salt]           6.85
2  COc1ccc(S(=O)(=O)n2c(=O)[nH]c3cc(Cl)ccc3c2=O)cc1NS(C)(=O)=O [Compound 24]           6.49
3  O=c1[nH]c2cc(Cl)ccc2c(=O)n1S(=O)(=O)c1cccc(O)c1 [Compound 1]           6.44

Query: # input compound: O=C(O)c1ccc(S(=O)(=O)n2c(=O)[nH]c3cc(Cl)ccc3c2=O)cc1O [Compound 16, monosodium salt] ; wanted: its pIC50
Response: 6.08

Query: Same question, Nc1cc(S(=O)(=O)n2c(=O)[nH]c3ccc(Cl)cc3c2=O)ccc1C(=O)O [Compound 32] this time
Response: 5.82

Query: Same question, Nc1cc(S(=O)(=O)n2c(=O)[nH]c3cc(Cl)ccc3c2=O)ccc1C(=O)O [Compound 17] this time
Response: 6.85
